Parameter: GI50. Scope: all listed entries.
# Test system: OVCAR-5
# TEST DETAILS: NCI tumour cell line growth inhibition, 48 h
Activity calls are given as the source filed them. Cut-off read from the data, not from the text of the source: active = GI50 up to about 1.1 µM and inactive = higher.
RECORDED METRIC: GI50

                                   compound               result
0  O=C1c2c(c3c4ccccc4n(CC4CO4)c3c3[nH]c4ccccc4c23)C(=O)N1Cc1ccccc1 (stereo not given)  > 100 µM (inactive)
1  CC1=NN(c2ccc(S(=O)(=O)O)cc2)C2(C1)C(Cl)C(=O)N2c1nc2ccccc2s1 (stereo not given)  > 100 µM (inactive)
2      c1ccc2c(c1)SC1=Nc3sc4ccccc4[n+]3CN12     15 µM (inactive)
3  COC(=O)N1C[C@@]2(C=CC3(CC2)OCCO3)c2ccccc21  > 100 µM (inactive)
4  CCN(CC)CC(=O)O[C@]1(CC)C(=O)OCc2c1cc1n(c2=O)Cc2cc3ccccc3nc2-1   0.0885 µM (active)

====

# Tested on: SR
# TEST DETAILS: NCI tumour cell line growth inhibition, 48 h
Active and inactive are the calls of the source. Rule as the data show it: active = GI50 up to about 1.1 µM and inactive = higher.
Outcomes: 1 (active), 0 (inactive)

>>> print(df.to_string())
                                    molecule  system_tested  qualitative_label
 0   O=C(N/N=C/c1ccccc1)c1cccc2nc3ccccc3nc12             SR                  0
 1  CCCCCCc1cc2cc(-c3csc(CC#N)n3)c(=O)oc2cc1O             SR                  0
 2  COC(=O)[C@]1(c2cc3ccccc3n2S(=O)(=O)c2ccccc2)CC2CN(C(C)=O)C1CC2=O (stereo partly drawn)             SR                  0
 3  C=C1C(=O)OC2C1CC(O)/C(C)=C\CCC1(C)OC21 (stereo not drawn)             SR                  0
 4  C1CN(C23OC4(N5CCOCC5)C5C6CC(C7C6C4C72)C53)CCO1 (stereo not drawn)             SR                  0
 5   O=C1NC(NCc2ccc(F)cc2)=N/C1=C\c1ccccc1Cl             SR                  0
 6  CC(C)(O)[C@@H]1CC[C@@]2(C)CCCC(O)C2(O)C1 (stereo partly drawn)             SR                  0
 7  O=C(/C(=C/c1ccc(Cl)cc1)c1ccccc1)c1ccccc1             SR                  0
 8      Cn1c(=O)c(Cl)c(N=[N+]=[N-])c2ccccc21             SR                  0
 9  O=C1C2=Cc3ccccc3OC2(O)Oc2cc3ccccc3cc21 (stereo not drawn)             SR                  0
10  O=C(Cc1ccccc1)N/N=C(/c1nc2ccc([N+](=O)[O-])cc2nc1O)C(O)c1ccccc1Cl (stereo not drawn)             SR                  0
11  Cc1[nH]n(-c2ccccc2)c(=O)c1C(N(CCc1ccccc1)C1=NCC(C)S1)(C(F)(F)F)C(F)(F)F (stereo not drawn)             SR                  0
12  Brc1cc(CCOC2CCCCO2)c(-c2sccc2CCOC2CCCCO2)s1 (stereo not drawn)             SR                  0
13  O=[N+]([O-])c1ccc(/C=C\c2ccc3c(c2)OCO3)c([N+](=O)[O-])c1             SR                  0
14  Nc1nc(Cl)cc(NCCCCCCCCNc2cc(Cl)nc(N)n2)n1             SR                  0
15                      C=CCNc1nc(C#N)c(N)s1             SR                  0
16  CC(C)=CC(=O)OC1C2C(C)=CC(=O)C(O)C2(C)C2C3(O)OCC24C(CC(=O)OC14)C(C)C3O (stereo not drawn)             SR                  1
17      CCCCCCCCOCC(O)COC (stereo not drawn)             SR                  0
18      c1ccc2c(c1)SC1=Nc3sc4ccccc4[n+]3CN12             SR                  0
19  Cc1nc(Nc2ccc([N+](=O)[O-])cc2)sc1C(/C=C/c1ccc(N(C)C)cc1)=N/NC(=O)c1ccccc1             SR                  0
20  COc1cc2cc3c4cc(OC)c(OC)cc4cc[n+]3c(C)c2cc1OC.O=C([O-])CS(=O)(=O)O             SR                  0
21  CC(=O)N1[C@H](C(=O)O)CS[C@H]1c1ccc(F)cc1             SR                  0
22      O=C1CCCC/C1=C\c1ccc([N+](=O)[O-])cc1             SR                  0

====

# Tested on: SN12C
# TEST DETAILS: NCI tumour cell line growth inhibition, 48 h
Calls of active or inactive are those of the source. No stated cut-off is given here; in the data, active = GI50 up to about 1.1 µM and inactive = higher.
Parameter: GI50. Scope: all listed entries.
RECORDED METRIC: GI50

MOLECULE	RESULT
O=C(C(Cl)Cl)N(O)c1ccccc1OCc1ccccc1	49.2 µM (inactive)
O=[N+]([O-])c1cc(Cl)cc2cc(Br)cnc12	> 31.6 µM (inactive)
COC(=O)N[C@@H]1C[C@H]2CC[C@]1(O[Si](C(C)C)(C(C)C)C(C)C)C(=O)C2	33.5 µM (inactive)
CC(C)=NOC(=O)OC[C@H]1O[C@@H](n2cnc3c(N)ncnc32)C(O)C1O (stereo partly specified)	> 100 µM (inactive)
O=[N+]([O-])c1ccc(/C=N/C23CC4CC(CC(C4)C2)C3)cc1	> 100 µM (inactive)
Cc1n[nH]c(=O)n1/N=C/c1ccncc1	> 100 µM (inactive)
CN(C)/C=C/C(=O)c1cccc(C(=O)/C=C/N(C)C)n1	> 100 µM (inactive)
CCSc1nc(=S)n(-c2ccccc2)c(C)c1C(C)=O	> 100 µM (inactive)
CC(=O)O[C@@H]1C[C@@]23C[C@@]24CC[C@H](OC2OCC(O)C(O)C2O)C(C)(C)[C@@H]4CC=C3[C@]2(C)C[C@@H]3OC4(C[C@@H](C)[C@@H]3[C@@]12C)OC(O)[C@@]1(C)O[C@@H]41 (stereo partly specified)	31.5 µM (inactive)
C=CC(=O)N1C/C(=C\c2ccc(OC)cc2)C(=O)/C(=C/c2ccc(OC)cc2)C1	2.49 µM (inactive)
O=C(O)CNC(=O)C1NC(C(F)(F)F)(C(F)(F)F)OC1(C(F)(F)F)C(F)(F)F (stereo unspecified)	> 100 µM (inactive)
CCOC(=O)C1=NOC2(C=C(Br)C(=O)C(Br)=C2)C1	2.36 µM (inactive)
c1cc2cc(c1)CN1CCNCCN(CCNCC1)Cc1cccc(c1)CN1CCNCCN(CCNCC1)C2	> 100 µM (inactive)
c1ccc2c(c1)SC1=Nc3sc4ccccc4[n+]3CN12	20.8 µM (inactive)
COc1cc(CO)cc2c1[nH]c1ccccc12	> 25 µM (inactive)
CCOCc1nc2c(OC)c(-c3nc4ccc(N5CCN(C)CC5)cc4[nH]3)cc(OC)c2[nH]1	74.3 µM (inactive)
Cc1ccc(C(=O)N/N=C(\N=N\c2ccccc2Cl)c2ccc(N(C)C)cc2)cc1	> 100 µM (inactive)
Nc1ccc(SC23CC4CC(CC(C4)C2)C3)cc1	> 100 µM (inactive)
COc1ccc(/C=N\N2CC(=O)N3C4C=CC(CC4)N3C2=O)cc1 (stereo unspecified)	> 100 µM (inactive)
CC1(C)OC2C(CO)OC(n3ccc(=O)[nH]c3=O)C2O1 (stereo unspecified)	> 100 µM (inactive)
Sc1ncc(-c2cncc(-c3cnc(S)nc3)n2)cn1	> 100 µM (inactive)

====

# Tested on: SR
# TEST DETAILS: NCI tumour cell line growth inhibition, 48 h
Calls of active or inactive are those of the source. No stated cut-off is given here; in the data, active = GI50 up to about 1.1 µM and inactive = higher.
Outcomes: true (1) for active, false (0) for inactive

In [3]: df
Out[3]:
                                    compound  qualitative_label
 0  CC[C@H]1OC([C@H](O)C/C=C\C#C[Si](C)(C)C)C/C=C\C[C@H]1O[Si](C)(C)C(C)(C)C (stereo partly specified)          false (0)
 1  O=C1/C(=C/c2cccs2)N=C(c2ccccc2)N1c1nc2ccccc2s1          false (0)
 2  C=C[C@]1(O)CCC[C@]2(C)C(=O)CCC12C (stereo partly specified)          false (0)
 3  CCOC(=O)C1=C(C)OC2(O)C=CC(O)=C3C(=O)N(c4ccccc4)C(=O)C312 (stereo unspecified)          false (0)
 4  C=C1C(=O)O[C@@H]2/C=C(\C)CC/C=C(/COC(C)=O)C[C@@H](OC(C)=O)[C@@H]12          false (0)
 5  c1ccc2c(CNCCCCCCCCCCCCNCc3cccc4ccccc34)cccc2c1           true (1)
 6  CCCC[Si](CCCC)(CCCC)O[C@@H](/C=C/C(=O)OCC)[C@H](Cc1ccccc1)O[Si](CCCC)(CCCC)CCCC          false (0)
 7  CCOCc1nc2c(OC)c(-c3nc4ccc(N5CCN(C)CC5)cc4[nH]3)cc(OC)c2[nH]1          false (0)
 8           O=C(Nc1ccccc1)Oc1ccccc1C1CCCCC1          false (0)
 9  Nc1ccc(S(=O)(=O)Nc2cnc3ccccc3n2)cc1 [SULFAQUINOXALINE]          false (0)
10  N#Cc1nsnc1-c1nc(-c2nsnc2C#N)nc(-c2nsnc2C#N)n1          false (0)
11  Cc1cc2nc(-c3c(F)cccc3F)n(Cc3c(F)cccc3F)c2cc1C          false (0)
12  CCOC(=O)Cn1nnc2ccc(Nc3nc4ccccc4nc3-c3ccccc3)cc21          false (0)
13          Cn1/c(=N\c2ccc(Cl)cc2)sc2ccccc21          false (0)
14  COC(=O)N1C[C@@]2(C=CC3(CC2)OCCO3)c2ccccc21          false (0)
15  COc1ccc(NC(=O)C(=O)NNC(=O)c2sc(NNC(C)=O)nc2C)c([N+](=O)[O-])c1          false (0)
16                 CCNC(=O)COc1ccc(Cl)c(C)c1          false (0)
17  COc1cccc(/C(CC(O)(C(F)(F)F)C(F)(F)F)=N\N(C)C)c1          false (0)
18  COC1=CC(=O)[C@@]2(C)C(C)[C@H](c3ccccc3)[C@H]2C1=O (stereo partly specified)          false (0)
19  CN(C)CC1CCCC/C1=N\OC(=O)c1ccccc1 (stereo unspecified)          false (0)
20   CCOC(=O)c1[nH]c(Br)c(-c2ccc(Br)cc2)c1Br           true (1)
